biological target: Caspase-3 (Homo sapiens) (UniProt P42574); test: NVS_ENZ_hCASP3: NovaScreen (NVS) Enzymatic Assay for human Caspase 3 (CASP3) (AID 2283139)
Sequence (P42574 whole entry, looked up): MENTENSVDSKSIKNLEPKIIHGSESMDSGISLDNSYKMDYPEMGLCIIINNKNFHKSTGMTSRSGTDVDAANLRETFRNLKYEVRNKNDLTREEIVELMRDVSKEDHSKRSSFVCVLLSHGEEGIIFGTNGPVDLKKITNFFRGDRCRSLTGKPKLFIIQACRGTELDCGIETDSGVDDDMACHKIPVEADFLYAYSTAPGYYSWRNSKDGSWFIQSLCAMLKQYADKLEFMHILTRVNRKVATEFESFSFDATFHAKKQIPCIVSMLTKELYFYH
Inconclusive results are not listed. Active and inactive are the calls of the source. The calls were made as follows: active = hit-call score of the fitted dose curve at least 0.9, where 1 is the maximum; inconclusive = response in the unintended direction; inactive = score below 0.9.
Bench note: report the call from active, inactive

For orientation, consider the following solved cases.
1) CC(=O)OC1CC(C)OC(C)O1 (centres undefined) : inactive
2) O=C1c2c(O)cccc2Cc2cccc(O)c21 : active
3) CCCCCCCC(=O)OC : inactive

API: the following record is the query input.
Returns: the outcome recorded for `O=C1CCCCC1` in this assay. inactive

###

assay: BSK_SAg_PBMCCytotoxicity: PBMC Cytotoxicity Assessment in the BioMAP Diversity Plus: SAg Assay (AID 2283093); settings: primary human HUVEC with PBMC;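 also: PBMC viability measured as Alamar Blue reduction fluorescence at 546/580 nm; fitted both ways against DMSO so a hit may be loss or gain of signal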
The source made the active and inactive calls. Rule for the calls: active = hit-call score of the fitted dose curve at least 0.9, where 1 is the maximum; inactive = score below 0.9.
Bench note: report the call from yes (1) for active, no (0) for inactive

1) Cc1ccc(C(C)(C)C)c(O)c1 : no (0)

API: the following record is the query input.
Returns: the outcome recorded for `CCCCCCCCCCCCCCCCO` in this assay. no (0)

###

test: Tanguay_ZF_120hpf_TRUN_legacy: (Legacy) Oregon State University Tanguay Lab 120 Hour Post-fertilization zebrafish Assay for Truncated Body (AID 2283655)
Results filed as inconclusive are left out. Activity calls are given as the source filed them. The calls were made as follows: active = hit-call score of the fitted dose curve at least 0.9, where 1 is the maximum; inconclusive = response in the unintended direction; inactive = score below 0.9.
RECORDED_ENDPOINT: outcome

Answered cases to consult:
1) CCCC[C@H]1CN(CC2CCOCC2)C(=O)OC12CCN(C1(C)CCN(C(=O)c3c(C)ncnc3C)CC1)CC2 : inactive
2) O=C1CCCCC1 : inactive
3) C/C=C/c1ccc(OC)cc1 : inactive
4) O=C1OC(c2ccc(O)cc2)(c2ccc(O)cc2)c2ccccc21 : inactive
5) CC(=O)CC(c1ccccc1)c1c(O)c2ccccc2oc1=O (configuration not stated) : inactive

The compound identified as CCCCC(CC)CO (configuration not stated) registered its outcome at inactive

The compound identified as `O=C(O)CN(CC(=O)O)CC(=O)O` registered its outcome at inactive

The compound identified as `CC(C)c1cccc(C(C)C)c1NC(=O)NS(=O)(=O)c1cc(C(C)(C)O)co1` registered its outcome at inactive

The compound identified as `CCN(CC)CCOc1ccc(C(=C(Cl)c2ccccc2)c2ccccc2)cc1` registered its outcome at inactive

The compound identified as `CS(=O)(=O)c1ccc([C@@H](C[C@H]2CCC(=O)C2)C(=O)Nc2cnccn2)cc1Cl` registered its outcome at inactive

The compound identified as `O=C(O)c1[nH]n(-c2ccc(S(=O)(=O)O)cc2)c(=O)c1N=Nc1ccc(S(=O)(=O)O)cc1` registered its outcome at inactive

The compound identified as `CCCCOC(=O)CCCCC(=O)OCCCC` registered its outcome at inactive

###

read-out: ABC Transporter (ABCC3), ABCC3 (gene 8714); experiment: LTEA_HepaRG_ABCC3: Life Technologies and Expression Analysis (LTEA) Assay for ABC Transporter (ABCC3) using HepaRG (AID 2283462); settings: mRNA level, 48 h; actives raise or lower the signal
Calls of active or inactive are those of the source. The calls were made as follows: active = hit-call score of the fitted dose curve at least 0.9, where 1 is the maximum; inactive = score below 0.9.
Bench note: report the call from active, inactive

For orientation, consider the following solved cases.
1. CCCCCCCCCC[N+](C)(C)[O-] : inactive
2. COc1ccc(C(=O)Nc2nc3ccccc3c(NCc3ccccc3)c2C#N)cc1 : inactive
3. OCC(CO)n1cnc(-c2ccc(F)cc2)c1-c1ccnc(Oc2ccccc2)n1 : inactive

Returns: the outcome recorded for `CC1=C(C)S(=O)(=O)CCS1(=O)=O` in this assay. active

Returns: the outcome recorded for `CC(=O)[C@@]1(O)CC[C@H]2[C@@H]3CCC4=CC(=O)CC[C@]4(C)[C@H]3CC[C@@]21C` in this assay. inactive
